Assay: Solubility in Fasted State Simulated Intestinal Fluid (FaSSIF)
Format: physicochemical
Settings: thermodynamic from solid, FaSSIF pH 6.5, 37° C., measured after 24 hours
Reported solubility at 24 h values for the following compounds.

smiles structure: Cc1cccc(C)c1CNc1cc(C(=O)NC[C@H](C)O)cn2c(C)c(C)nc12
solubility at 24 h: 48 µM

smiles structure: CS(=O)(=O)O.Cc1cccc(C)c1CNc1cc(C(=O)NC[C@H](C)O)cn2c(C)c(C)nc12
solubility at 24 h: 218 µM

----------
Assay: Bioavailability in the conscious dog
Assay type: in vivo
Conditions: plasma
observed property: bioavailability (%)

molecule: Cc1cccc(C)c1CNc1cc(C(=O)NCCO)cn2c(C)c(C)nc12 [reference compound]
value: 61
